Test system: EKVX NSCLC
Assay: NCI tumour cell line growth inhibition, 48 h
Listed below: TGI values for each entry.

> print(dat)
                                   compound         tgt  assay.endpoint  value.reported
1  CO/N=C(\C)c1cccc(Nc2c3ccccc3nc3occc23)c1  EKVX NSCLC             TGI         37.2 µM

Form: Entry = Cc1cc2c(C)nn(Cc3ccc(Cl)cc3)c2c(C#N)c1C | System = EKVX NSCLC | TGI = ____
> 100 µM

----------
Test system: SF-295 CNS
Assay: NCI tumour cell line growth inhibition, 48 h; in the data active means GI50 below about 0.43 µM; inactive means the rest
I would appreciate it if you answered using one of these outcomes: 1 (active), -1 (inactive)

Reference set (2 entries):
molecule	group
CCCCCCCc1cc2c3c(nc4ccccc42)C(=O)c2cccnc2-c3n1	-1
COC(=O)CC[C@H](Cc1ccccc1)NC(=O)c1csc([C@@H](C[C@H](C(C)C)N(C)C(=O)[C@@H](NC(=O)[C@H]2CCCCN2C)C(C)C)OC(C)=O)n1	1

For CC(C)=CC1=C2C3=C(C(=O)C4(O)Oc5c(C)c6c7c(c5OC24C)[C@@H](C)CC[C@@H]7[C@@H](C)C[C@H]6C=C(C)C)C(C)CCC3C(C)C1 (stereo partly specified) , what call appears in the results of this test?
-1

For NCCCNCCCCNC(=O)C(O)NC(=O)CCCCCCN=C(N)N (stereo unspecified) , what call appears in the results of this test?
-1

For COc1ccc(-c2ccc(-c3ccc(C(=N)N)o3)o2)cc1 , what call appears in the results of this test?
-1

For CCNC(=O)O[C@H]1CN[C@H](C#Cc2cc3ncnc(Nc4ccc(OCc5cccc(F)c5)c(Cl)c4)c3s2)C1 , what call appears in the results of this test?
-1
